- procedure summary: in vitro
- particulars: human, hela cells, % viability
observable: viability at 28.5 h, 10 µM (%)
Answer in %, number only, no unit symbol.

Take a look at these entries with their results.
Fill in the blank: the reported viability at 28.5 h, 10 µM of O=C(O)c1ccccc1C(=O)Nc1cccc(-c2noc(-c3cccc(F)c3)n2)c1 [CBK299813] is ____.
92

Fill in the blank: the reported viability at 28.5 h, 10 µM of O=C(OCCc1c[nH]c2ccccc12)N1CCOCC1 [CBK200415] is ____.
106

// next entry
Fill in the blank: the reported viability at 28.5 h, 10 µM of C[C@H](Nc1nccnc1-c1cccc(O)c1)c1ccccc1 [CBK037180] is ____.
106

----------
In this section we review reported viability at 28.5 h, 10 µM values for a set of compounds.
- procedure summary: in vitro
- particulars: human, hela cells, % viability

Fill in the blank: the reported viability at 28.5 h, 10 µM of `Cc1ccc(Nc2nc(N)nc(CSc3nccn3C)n2)cc1` is ____.
113%

Fill in the blank: the reported viability at 28.5 h, 10 µM of `Cc1cc(/C=C2/NC(=O)NC2=O)c(C)n1-c1ccc(S(N)(=O)=O)cc1` is ____.
106%

Fill in the blank: the reported viability at 28.5 h, 10 µM of `Cc1ccc(CNc2oc(COc3ccc(Br)cc3)nc2C#N)cc1` is ____.
99.5%

Fill in the blank: the reported viability at 28.5 h, 10 µM of `Cc1ccc(S(=O)(=O)N2CC=CCC2)cc1` is ____.
89%

Fill in the blank: the reported viability at 28.5 h, 10 µM of O=C(OCCN1C[C@H]2CCCCC2C1c1ccccc1)c1ccc(Br)cc1 (stereo partly shown) [CBK016175C] is ____.
104%

Next:
Fill in the blank: the reported viability at 28.5 h, 10 µM of Cc1nn(C)cc1C(C)NC(=O)c1cn2cccc(C)c2n1 (stereo not shown) is ____.
92.1%

Fill in the blank: the reported viability at 28.5 h, 10 µM of `O=C(Nc1c[nH]c(=O)[nH]c1=O)c1ccc(Oc2ccc(C(=O)Nc3c[nH]c(=O)[nH]c3=O)cc2)cc1` is ____.
108%

Fill in the blank: the reported viability at 28.5 h, 10 µM of `CCOC(=O)c1c(NC(=O)Cn2nc(C(F)(F)F)c(Cl)c2C)sc2c1CCCC2` is ____.
98.5%

Fill in the blank: the reported viability at 28.5 h, 10 µM of COCCCNC(=O)C1CCCN(c2nc3c(-c4ccc(C)cc4)csc3c(=O)[nH]2)C1 (stereo not shown) is ____.
83.1%

Fill in the blank: the reported viability at 28.5 h, 10 µM of `O=c1[nH]c(=O)c2cc(S(=O)(=O)Nc3cccc(CCc4ccncc4)c3)ccc2[nH]1` is ____.
103%

Fill in the blank: the reported viability at 28.5 h, 10 µM of `NC(=O)CSc1nnc2ccc3ccccc3n12` is ____.
110%

Fill in the blank: the reported viability at 28.5 h, 10 µM of `COc1cncc(-c2cnc3[nH]c(=O)n(C4CCCCC4)c3n2)c1` is ____.
97.8%

Fill in the blank: the reported viability at 28.5 h, 10 µM of `Cc1ccccc1NC(=O)Nc1ccc(OCc2ccccc2)cc1` is ____.
108%

Fill in the blank: the reported viability at 28.5 h, 10 µM of `FC(F)(F)c1cccc(-c2cn3ccnc3c(NCCc3ccccn3)n2)c1` is ____.
95.4%

Fill in the blank: the reported viability at 28.5 h, 10 µM of `COCCn1c(SCc2cn3ccccc3c2C#N)nc(C)c1C` is ____.
92.4%

Fill in the blank: the reported viability at 28.5 h, 10 µM of CC1CCCCN1S(=O)(=O)c1ccc(NCCC(=O)c2ccc(Cl)cc2)cc1 (stereo not shown) is ____.
113%

Fill in the blank: the reported viability at 28.5 h, 10 µM of `CSc1nnc(CCCNc2cccc(C#N)n2)n1CC(C)C` is ____.
96.8%

Fill in the blank: the reported viability at 28.5 h, 10 µM of `Cc1cccc2sc(NC(=O)CCCCCNC(N)=O)nc12` is ____.
106%

Fill in the blank: the reported viability at 28.5 h, 10 µM of `CC(C)Cn1ncc2cc(C(=O)Nc3ccnn3C(C)C)cnc21` is ____.
79%

----------
- procedure summary: in vitro
- particulars: human, hela cells, % viability
observable: viability at 28.5 h, 10 µM (%)
Answer in %, number only, no unit symbol.

Fill in the blank: the reported viability at 28.5 h, 10 µM of COc1ccccc1-c1cc2nc(C)cc(Nc3ccccc3)n2n1 [CBK287806] is ____.
97.3

Fill in the blank: the reported viability at 28.5 h, 10 µM of Cc1ccc(OCC(O)Cn2c(=N)n(Cc3ccccc3)c3ccccc32)cc1 (stereo not drawn) [CBK266293C] is ____.
91.7

Fill in the blank: the reported viability at 28.5 h, 10 µM of COc1ccc2[nH]c3c(c2c1)CCNC31CCCN(Cc2ccc(OC(F)(F)F)cc2)C1 (stereo not drawn) [CBK039387] is ____.
113

Fill in the blank: the reported viability at 28.5 h, 10 µM of CN(C)CCNC(=O)C1CCCN(c2nc3c(-c4ccccc4)csc3c(=O)[nH]2)C1 (stereo not drawn) [CBK215501] is ____.
88.3

Fill in the blank: the reported viability at 28.5 h, 10 µM of Cc1ccc(-c2noc(CN(C(=O)CCc3ccccc3)C(C)C)n2)cc1 [CBK269313] is ____.
99.3

Next:
Fill in the blank: the reported viability at 28.5 h, 10 µM of CC12CCC(=O)N1CCCN2Cc1cnn(-c2ccc(F)cc2)c1 (stereo not drawn) [CBK281819] is ____.
94.2

Fill in the blank: the reported viability at 28.5 h, 10 µM of O/N=C/c1ccc(-c2cc(Cl)ccc2Cl)o1 [CBK288500] is ____.
92.6

Fill in the blank: the reported viability at 28.5 h, 10 µM of CC(CN(C)C)C(=O)c1ccsc1 (stereo not drawn) [CBK025906] is ____.
93

Fill in the blank: the reported viability at 28.5 h, 10 µM of COC(=O)c1ccccc1NC(=O)CNC(=O)c1ccccc1Cl [CBK269113] is ____.
88.8

----------
- procedure summary: in vitro
- particulars: human, hela cells, % viability
Label Fulfilled when viability at 28.5 h, 10 µM is strictly below 90%; otherwise label Not fulfilled.

Completed entries (count: 4):
Is it true that viability at 28.5 h, 10 µM reported for O=C(COc1ccccc1)n1nc(-c2ccco2)nc1NCc1cccs1 [CBK269145] is less than 90%?
Fulfilled

Is it true that viability at 28.5 h, 10 µM reported for CCOC(=O)c1sc(-c2ccccc2)nc1OCc1ccccc1Cl [CBK067727] is less than 90%?
Not fulfilled

Is it true that viability at 28.5 h, 10 µM reported for Cc1cc(NC(=O)Cn2cc(Br)cn2)no1 [CBK305706] is less than 90%?
Not fulfilled

Is it true that viability at 28.5 h, 10 µM reported for O=C(Nc1ccc(O)cc1)c1ccc2c(c1)C(=O)N(c1cccc(N3C(=O)c4ccc(C(=O)Nc5ccc(O)cc5)cc4C3=O)n1)C2=O [CBK261334] is less than 90%?
Not fulfilled

Next:
Is it true that viability at 28.5 h, 10 µM reported for CCCC12CN3CC(CCC)(CN(C1)C3c1ccc([N+](=O)[O-])cc1)C2=O (stereo not drawn) [CBK264481] is less than 90%?
Not fulfilled

Is it true that viability at 28.5 h, 10 µM reported for COc1ccc(-c2nnc(SCCC(=O)O)[nH]2)cc1 [CBK300506] is less than 90%?
Not fulfilled

----------
- procedure summary: in vitro
- particulars: human, hela cells, % viability
observable: viability at 28.5 h, 10 µM (%)
Answer in %, number only, no unit symbol.

Take a look at these entries with their results.
Fill in the blank: the reported viability at 28.5 h, 10 µM of `COc1ccc2nc(N3CCc4ccccc4C3)sc2c1` is ____.
102

Fill in the blank: the reported viability at 28.5 h, 10 µM of `O=C(NC1Cc2ccccc2C1)c1nccc2ccccc12` is ____.
97

Fill in the blank: the reported viability at 28.5 h, 10 µM of `Nc1ncnc(Nc2ccc(Nc3ccccc3)cc2)c1[N+](=O)[O-]` is ____.
88.9

Fill in the blank: the reported viability at 28.5 h, 10 µM of `O=C(CCn1cc(Br)ccc1=O)NC1CCN(Cc2ccccc2)CC1` is ____.
101

Next:
Fill in the blank: the reported viability at 28.5 h, 10 µM of `CC(=O)Nc1cccc(Oc2nccnc2/C=C/c2ccccc2)c1` is ____.
91.6

Fill in the blank: the reported viability at 28.5 h, 10 µM of CCC1CCCCN1C(=O)Cn1cnc2c(Cl)cc(Cl)cc2c1=O (stereo not shown) is ____.
90

Fill in the blank: the reported viability at 28.5 h, 10 µM of Cc1ncccc1C(=O)NC(c1ccc(F)c(F)c1)c1nccn1C (stereo not shown) is ____.
90.8

Fill in the blank: the reported viability at 28.5 h, 10 µM of `CCOC(=O)CNC(=O)c1cc2ccccc2c(=O)o1` is ____.
97.9

Fill in the blank: the reported viability at 28.5 h, 10 µM of `CCc1cccc(NC(=O)CCc2ccccc2)c1` is ____.
112

Fill in the blank: the reported viability at 28.5 h, 10 µM of `Cc1ccc(Cc2nc(-c3cccnc3)no2)cc1` is ____.
94.3
